FYI, the data here is from patent US20210206850A1.

assay_target: T1, human CD47ECD mouse Fc protein (human, UniProt Q08722 19-139, limits assumed)
T1 construct: extracellular domain; also called HuCD47ECD muFc; bivalent CD47ECD muFc protein; not shown: mouse Fc
T1 sequence (Q08722 19-139 limits assumed): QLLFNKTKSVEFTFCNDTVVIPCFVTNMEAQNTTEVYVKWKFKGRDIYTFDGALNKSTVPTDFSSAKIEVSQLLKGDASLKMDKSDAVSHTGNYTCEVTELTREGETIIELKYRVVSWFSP
assay_overview: SPR (Biacore 3000); antibody captured on anti-human Fc chip, bivalent HuCD47ECD muFc injected
Entries and their koff

| binder | koff |
| --- | --- |
| D96S1 mouse/human chimeric anti-human CD47 antibody (antibody, V domains shown, also called chimeric D96S1) VH: EVQLQQSGAELVKPGASVKLSCTASGFNIKDTYIHWVKQRPEQGLEWIGRIDPANGNIKSDPKFQGKATVTADTSSNTAYLQLSSLTSEDTAVYYCARSYGSSFASWGQGTLVTVSP VL: DIQMTQTTSSLSASLGDRVTISCRASQDISNHLNWYQQKPDGAVKLLIYYTSRLHSGVPSRFSGSGSGTDYSLTISNLEQEDIATYFCQQGSTFPYTFGGGTKLEIK | 1.45e-05 s⁻¹ |
| D8S1 mouse/human chimeric anti-human CD47 antibody (antibody, V domains shown, also called chimeric D8S1) VH: EVQLQQSVAELVRPGASVKLSCTVSGFNIKNTYIYWVKQRPEQGLEWIGRIDPANGNTKDAPKFQGKATMTADTSSNTAYLQLSSLTSEDTAIYYCARGYGSGFAYWGQGTLVTVSA VL: DIQMTQTTSSLSASLGDRVTISCRASQDISNHLNWYQQKPDGIVKLLIYYTSRLHSGVPSRFSGSGSGTDYSLTISNLEQEDIATYFCQQGSTLPFTFGSGTKLEIK | 4.77e-05 s⁻¹ |
| AB6.12, a humanized version of anti-CD47 antibody 2A1 from Celgene (antibody, from another filing, V domains shown) VH: QMQLVQSGAEVKKTGSSVKVSCKASGFNIKDYYLHWVRQAPGQALEWMGWIDPDQGDTEYAQKFQDRVTITRDRSMSTAYMELSSLRSEDTAMYYCNAAYGSSSYPMDYWGQGTTVTVSS VL: NIQMTQSPSAMSASVGDRVTITCKASQDIHRYLSWFQQKPGKVPKHLIYRANRLVSGVPSRFSGSGSGTEFTLTISSLQPEDFATYYCLQYDEFPYTFGGGTKVEIKR | 2.25e-05 s⁻¹ |
